System: HCT-116/VM46
Experiment: Antiproliferative activity against human HCT116/VM46 cells after 72 hrs by MTS assay
Format: functional, cell-based
Settings: HCT-116/VM46, 72 h
Endpoint name: IC50 (nM)
Numbers only; they are read as nM.

Please look up its IC50: CC1=CN2C(=O)c3cc4c(cc3N=C[C@@H]2C1)OCCCOc1cc2c(cc1OCCCCCCCCO4)C(=O)N1C=C(c3ccc(N)cc3)C[C@H]1C=N2
1.22

Fill blank: measured IC50 of the compound COc1ccc(C2=CN3C(=O)c4cc5c(cc4N=C[C@@H]3C2)OCCCOc2cc3c(cc2OCCCCCCCCO5)C(=O)N2C=C(c4ccc(OC)cc4)C[C@H]2C=N3)cc1 is ____.
1.05

Please report the recorded IC50 for CN1CCN(c2ccc(C3=CN4C(=O)c5cc6c(cc5N=C[C@@H]4C3)OCCCOc3cc4c(cc3OCCCCCCCCO6)C(=O)N3C=C(c5ccc(N)cc5)C[C@H]3C=N4)cc2)CC1 .
0.015

Taken from ChEMBL document CHEMBL4177664.
